Entry source: patent US9867811B2

molecular target: CETP (Homo sapiens); construct: Human serum samples were obtained from the Novartis Institutes for BioMedical Research donor program; tissue Novartis donor program; Bioreclamation (Westbury, N.Y.); Uniglobe (Reseda, Calif.); host or cells: pooled human donor serum; assay: In vitro CETP activity assay in human plasma (serum pools of differing triglyceride level); assay type: biochemical; conditions: human serum pool, TG = 1269.35 mg/dL (very high 2); read-out: CETP IC50 (nM) TG = 1269.35 mg/dL
Quantity: IC50 (nM)

CC[C@@H]1C[C@H](N(Cc2cc(C(F)(F)F)cc(C(F)(F)F)c2)c2ncc(-c3cnn(C)c3)cn2)C[C@H](CC)N1C(=O)O[C@H]1C[C@H](C(=O)O)C1    29.6
Cn1nnc(N(Cc2cc(C(F)(F)F)cc(C(F)(F)F)c2)Cc2cc3cc(F)c(F)cc3nc2N2CCC[C@@H]2[C@H]2CC[C@H](C(=O)O)CC2)n1    46.4
CC[C@@H]1C[C@H](N(Cc2cc(C(F)(F)F)cc(C(F)(F)F)c2)c2ncc(-c3cnn(C)c3)cn2)C[C@H](CC)N1C(=O)O[C@H]1CC[C@H](C(=O)O)CC1 [Example 19]    540
CCN(C[C@H]1CC[C@H](CC(=O)O)CC1)c1ccc(C(F)(F)F)cc1CN(c1ncc(OCCS(C)(=O)=O)cn1)[C@@H](C)c1cc(C(F)(F)F)cc(C(F)(F)F)c1 [Example 57A]    29.4
Cc1cc(C)c2c(c1)[C@@H](N(Cc1cc(C(F)(F)F)cc(C(F)(F)F)c1)c1nnn(C)n1)CCCN2C[C@H]1CC[C@H](C(=O)O)CC1    92.3

A. CCN(C[C@H]1CC[C@H](CC(=O)O)CC1)c1cc(C)c(C(F)(F)F)cc1CN(Cc1cc(C(F)(F)F)cc(C(F)(F)F)c1)c1nnn(C)n1
B. CCN(C[C@H]1CC[C@H](CC(=O)O)CC1)c1ccc(C(F)(F)F)cc1CN(c1ncc(OCCS(C)(=O)=O)cn1)[C@H](C)c1cc(C(F)(F)F)cc(C(F)(F)F)c1 [Example 57B]
Lowest IC50? choose A or B Give the label under which the chosen entry appears. A

###

target: CETP (Homo sapiens, UniProt P11597); construct: Human serum samples were obtained from the Novartis Institutes for BioMedical Research donor program; tissue Novartis donor program; Bioreclamation (Westbury, N.Y.); Uniglobe (Reseda, Calif.); host or cells: pooled human donor serum; test: In vitro CETP activity assay in human plasma (serum pools of differing triglyceride level); assay type: biochemical; conditions: human serum pool, TG = 374.5 mg/dL (high); read-out: CETP IC50 (nM) TG = 374.5 mg/dL
Sequence (P11597 18-493): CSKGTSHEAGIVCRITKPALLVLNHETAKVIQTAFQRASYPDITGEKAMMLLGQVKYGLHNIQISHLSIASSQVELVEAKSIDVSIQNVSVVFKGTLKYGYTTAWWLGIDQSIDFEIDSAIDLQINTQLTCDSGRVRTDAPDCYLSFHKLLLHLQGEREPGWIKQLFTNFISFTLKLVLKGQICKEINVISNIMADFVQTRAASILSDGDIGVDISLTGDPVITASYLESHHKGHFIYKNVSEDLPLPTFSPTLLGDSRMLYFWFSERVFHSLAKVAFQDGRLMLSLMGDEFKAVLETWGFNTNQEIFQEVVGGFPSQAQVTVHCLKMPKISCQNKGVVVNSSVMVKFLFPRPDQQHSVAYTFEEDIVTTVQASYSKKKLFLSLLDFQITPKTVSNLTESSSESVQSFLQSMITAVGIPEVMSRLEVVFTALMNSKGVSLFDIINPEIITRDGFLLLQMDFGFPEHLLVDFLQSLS
Quantity: IC50 (nM)

CCN(C[C@H]1CC[C@H](CC(=O)O)CC1)c1ccc(C(F)(F)F)cc1CN(c1ncc(OCCS(C)(=O)=O)cn1)[C@@H](C)c1cc(C(F)(F)F)cc(C(F)(F)F)c1 [Example 57A]    155

P. Cc1cc(C)c2c(c1)[C@@H](N(Cc1cc(C(F)(F)F)cc(C(F)(F)F)c1)c1nnn(C)n1)CCCN2C[C@H]1CC[C@H](C(=O)O)CC1
Q. CC[C@@H]1C[C@H](N(Cc2cc(C(F)(F)F)cc(C(F)(F)F)c2)c2ncc(-c3cnn(C)c3)cn2)C[C@H](CC)N1C(=O)O[C@H]1CC[C@H](C(=O)O)CC1 [Example 19]
Lowest IC50? choose P or Q Give the label under which the chosen entry appears. P

I. CCN(C[C@H]1CC[C@H](CC(=O)O)CC1)c1ccc(C(F)(F)F)cc1CN(c1ncc(OCCS(C)(=O)=O)cn1)[C@H](C)c1cc(C(F)(F)F)cc(C(F)(F)F)c1 [Example 57B]
II. CCN(C[C@H]1CC[C@H](CC(=O)O)CC1)c1cc(C)c(C(F)(F)F)cc1CN(Cc1cc(C(F)(F)F)cc(C(F)(F)F)c1)c1nnn(C)n1
Lowest IC50? choose I or II Give the label under which the chosen entry appears. II
(II: 151 nM, I: 1300 nM)

1. Cn1nnc(N(Cc2cc(C(F)(F)F)cc(C(F)(F)F)c2)Cc2cc3cc(F)c(F)cc3nc2N2CCC[C@@H]2[C@H]2CC[C@H](C(=O)O)CC2)n1
2. CC[C@@H]1C[C@H](N(Cc2cc(C(F)(F)F)cc(C(F)(F)F)c2)c2ncc(-c3cnn(C)c3)cn2)C[C@H](CC)N1C(=O)O[C@H]1C[C@H](C(=O)O)C1
Thinking about recorded IC50 values, which is higher, 1 or 2 ? Give the label under which the chosen entry appears. 2

###

System: CETP
Test: Ex vivo CETP activity in plasma of hamsters (saline or Triton WR-1339 treated)
Conditions: hamster, oral gavage: Torcetrapib 10 mg/kg, Anacetrapib 3 mg/kg, Example 49 3 mg/kg, Example 8 1.5 mg/kg; Triton WR-1339 100 mg/kg i.v.
Procedure: Nine- to ten-week-old, male golden Syrian hamsters were purchased from Japan SLC Inc. (Shizuoka, Japan). Animals underwent a more than 1-week acclimation period under the following conditions: 8:00/20:00 light/dark cycle, room temperature 23±2° C. […] During this time, animals received filtered (0.5 μm) water and a standard chow diet ad libitum. […] CETP activity (RFU/min) was defined as the change in fluorescence intensity from 30 to 90 min. […]
Consider the following compounds and their measured Inhibition of CETP activity, higher dose group, Triton WR-1339 group readings.
Just the number in %, nothing appended.

Sample records with Inhibition of CETP activity, higher dose group, Triton WR-1339 group:
Cn1nnc(N(Cc2cc(C(F)(F)F)cc(C(F)(F)F)c2)Cc2cc3cc(F)c(F)cc3nc2N2CCC[C@@H]2[C@H]2CC[C@H](C(=O)O)CC2)n1    38
CCOC(=O)N1c2ccc(C(F)(F)F)cc2[C@@H](N(Cc2cc(C(F)(F)F)cc(C(F)(F)F)c2)C(=O)OC)C[C@H]1CC    8
CC[C@@H]1C[C@H](N(Cc2cc(C(F)(F)F)cc(C(F)(F)F)c2)c2ncc(-c3cnn(C)c3)cn2)C[C@H](CC)N1C(=O)O[C@H]1CC[C@H](C(=O)O)CC1    47

Turning to the following compound.
Need Inhibition of CETP activity, higher dose group, Triton WR-1339 group of COc1cc(F)c(C(C)C)cc1-c1ccc(C(F)(F)F)cc1CN1C(=O)O[C@H](c2cc(C(F)(F)F)cc(C(F)(F)F)c2)[C@@H]1C [Anacetrapib, reference compound] , thanks. 13

###

biological target: CETP (Homo sapiens); construct: Human serum samples were obtained from the Novartis Institutes for BioMedical Research donor program; tissue Novartis donor program; Bioreclamation (Westbury, N.Y.); Uniglobe (Reseda, Calif.); host or cells: pooled human donor serum; assay: In vitro CETP activity assay in human plasma (serum pools of differing triglyceride level); format: biochemical; conditions: human serum pool, TG = 868.45 mg/dL (very high 1); read-out: CETP IC50 (nM) TG = 868.45 mg/dL
Quantity: IC50 (nM)

CC[C@@H]1C[C@H](N(Cc2cc(C(F)(F)F)cc(C(F)(F)F)c2)c2ncc(-c3cnn(C)c3)cn2)C[C@H](CC)N1C(=O)O[C@H]1C[C@H](C(=O)O)C1    40.2
CCN(C[C@H]1CC[C@H](CC(=O)O)CC1)c1cc(C)c(C(F)(F)F)cc1CN(Cc1cc(C(F)(F)F)cc(C(F)(F)F)c1)c1nnn(C)n1    280
Cn1nnc(N(Cc2cc(C(F)(F)F)cc(C(F)(F)F)c2)Cc2cc3cc(F)c(F)cc3nc2N2CCC[C@@H]2[C@H]2CC[C@H](C(=O)O)CC2)n1    37.1

I. Cc1cc(C)c2c(c1)[C@@H](N(Cc1cc(C(F)(F)F)cc(C(F)(F)F)c1)c1nnn(C)n1)CCCN2C[C@H]1CC[C@H](C(=O)O)CC1
II. CCN(C[C@H]1CC[C@H](CC(=O)O)CC1)c1ccc(C(F)(F)F)cc1CN(c1ncc(OCCS(C)(=O)=O)cn1)[C@@H](C)c1cc(C(F)(F)F)cc(C(F)(F)F)c1 [Example 57A]
III. CCN(C[C@H]1CC[C@H](CC(=O)O)CC1)c1ccc(C(F)(F)F)cc1CN(c1ncc(OCCS(C)(=O)=O)cn1)[C@H](C)c1cc(C(F)(F)F)cc(C(F)(F)F)c1 [Example 57B]
Exam item: list the entries in increasing order of IC50. Write the labels, ordered according to the request. I, II, III
